# Kd against Fatty acid-binding protein 5 (Homo sapiens), merged from multiple literature sources

Look up Kd: O=c1cc(COc2csc(C(F)(F)F)c2)[nH]c2nc(-c3ccccc3)nn12
< 500 nM

What about this molecule? CCC[C@H](OCc1cc(=O)n2nc(-c3ccccc3)nc2[nH]1)c1ccccc1
500 to 100000 nM

What do you get for O=c1cc(COCC2(c3cccc(F)c3)CC2)[nH]c2nc(-c3ccccc3)nn12 ?
500 to 100000 nM

Now give it for O=c1cc(COC(c2ccccc2)C2CC2)[nH]c2nc(-c3ccccc3)nn12 (stereo not drawn) too.
500 to 100000 nM

Same question for C=CCC(OCc1cc(=O)n2nc(-c3ccccc3)nc2[nH]1)c1ccccc1Cl (stereo not drawn) please.
500 to 100000 nM

Would you mind doing O=c1cc(COCc2ccccc2C(F)(F)F)[nH]c2nc(-c3ccccc3)nn12 as well?
500 to 100000 nM

Also CC(Cc1cc(=O)n2nc(-c3ccccc3)nc2[nH]1)(Oc1cccc(Cl)c1)C(=O)O (stereo not drawn) ?
500 to 100000 nM

Repeat with CC1(C)CCCC(OCc2cc(=O)n3nc(-c4ccccc4)nc3[nH]2)C1 (stereo not drawn)
< 500 nM

And what about the molecule O=C(c1nc2ccccc2nc1O)N1CCC[C@H]1Cc1cccc(Cl)c1 ?
500 nM

Next record, please: Cc1c(Cl)cccc1N(C)Cc1cc(=O)n2nc(-c3ccccc3)nc2[nH]1
> 500 nM

And what about the molecule O=c1cc(COCC2(c3cccc(C(F)(F)F)c3)CC2)[nH]c2nc(-c3ccccc3)nn12 ?
500 to 100000 nM

Same question, O=c1cc(COCc2cccnc2Cl)[nH]c2nc(-c3ccccc3)nn12 this time
500 to 100000 nM

How about this molecule: Cc1ccccc1OC(C)(C)COCc1cc(=O)n2nc(-c3ccccc3)nc2[nH]1
500 to 100000 nM

Try the molecule CC(OCc1cc(=O)n2nc(-c3ccccc3)nc2[nH]1)C1CCCCC1 (stereo not drawn)
500 to 100000 nM

# iterate: O=C(O)c1cccc(COCc2cc(=O)n3nc(-c4ccccc4)nc3[nH]2)c1
500 to 100000 nM

Cool, now O=c1c(Cl)c(COc2cccc(Cl)c2C2CC2)[nH]c2nc(-c3ccccc3)nn12
< 500 nM

Try this molecule too: CC(Cc1cc(=O)n2nc(-c3ccccc3)nc2[nH]1)(Oc1cccc(Cl)c1)C(=O)NCC1(c2ccccc2Cl)CC1 (stereo not drawn)
500 to 100000 nM

Another molecule to look at: Cc1c(Cl)cccc1OC(C)(C)COCc1cc(=O)n2nc(-c3ccccc3)nc2[nH]1
500 to 100000 nM
